Molecular target: CDK2/Cyclin E (Homo sapiens)
Construct: The open reading frames of CDK2 and Cyclin E were isolated; the GST-Rb substrate was made in E. coli BL21 (DE3) pLysS
Test: in vitro kinase assay, Scintillation Proximity Assay, incorporation of [γ-33-P]-ATP into GST-Rb
Conditions: GST-Rb substrate, 0.2 μM ATP, 60 minutes at room temperature, read-out: CDK2 inhibitory activity IC50
pIC50: −log10 of the molar value.

{"MOLECULE": "Cn1cncc1-c1ccnc(Nc2ccccc2)n1 [Example 14]", "pIC50": 6.84}

The reported measurements were obtained from patent US6969714B2.
